A collection of molecules and their measured inhibition
targetSystem: Pantothenate synthetase (Mycobacterium tuberculosis (strain ATCC 25618 / H37Rv))
protocolText: Coupled enzyme confirmation of inhibitors against recombinant Mtb PanC (AID 375);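 note: 0% = full reaction with vehicle and 100% = no enzyme background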
setupConditions: coupled enzyme assay; at 10 µM, stronger effect = higher value
The source made the active and inactive calls. The rule behind the calls is not given here.

INPUT: Query inhibition for CS(=O)(=O)N(CC(=O)N1CCN(c2cccc(Cl)c2)CC1)C1CCCCC1
OUTPUT: 0% (inactive)

INPUT: Quickly give me recorded inhibition for c1ccc2nc(-c3nc4ccccc4[nH]3)ccc2c1
OUTPUT: 0% (inactive)

INPUT: Given the molecule CCC(=NCC1CCCO1)c1c(O)n(Cc2ccccc2)c(=O)[nH]c1=O (stereo unspecified) , write its reported inhibition.
OUTPUT: 0% (inactive)

INPUT: Tell me measured inhibition for CCn1c(=O)cc(SCC(=O)Nc2cccnc2)c2ccccc21 please.
OUTPUT: 0% (inactive)

INPUT: For the molecule Cc1ccc(SCc2[nH]nc3c2C(c2ccc(C)o2)C(C#N)=C(N)O3)cc1 (stereo unspecified) , report inhibition.
OUTPUT: 3% (inactive)

INPUT: Let me know recorded inhibition for Cc1ccc(S(=O)(=O)C2(C(=O)NC3CCCC3)CC2)cc1 , thanks.
OUTPUT: 9% (inactive)

INPUT: Give the reported value of inhibition for this record: COc1ccc(N2C(=O)c3cccc4cccc(c34)C2=O)nn1
OUTPUT: 0% (inactive)

INPUT: Return reported inhibition. Input molecule: CCOC(=O)c1ccc(CC2S/C(=C(\C#N)C(C)=O)NC2=O)cc1 (stereo unspecified)
OUTPUT: 10% (inactive)

INPUT: // fetch inhibition given entry CC1(C)Cc2noc(N)c2C(C)(C)N1OC(=O)c1cccs1
OUTPUT: 0% (inactive)

INPUT: Supply recorded inhibition for COc1ccc(N2CCN(C(=O)CCNS(=O)(=O)c3ccc(Br)s3)CC2)cc1 here.
OUTPUT: 3% (inactive)

Further cases:
INPUT: Entry CCC(C)NC(=O)C1(C)CCC(=O)N1CCc1ccc(OC)c(OC)c1 (stereo unspecified) needs its inhibition filled in; supply it.
OUTPUT: 0% (inactive)

INPUT: Input COc1cc(C2N=C(c3ccccc3)NO2)cc(Br)c1O (stereo unspecified) , output reported inhibition.
OUTPUT: 4% (inactive)

INPUT: Retrieve inhibition measured for COc1ccccc1OCCCn1cc(C(=O)c2ccco2)c2ccccc21 and print it.
OUTPUT: 0% (inactive)

INPUT: Specify reported inhibition for the molecule shown: N#Cc1cnc(SCCc2ccccc2)nc1N
OUTPUT: 0% (inactive)

INPUT: Output inhibition of Cc1ccc(N=Cc2ccc(O)cc2O)cc1F
OUTPUT: 0% (inactive)

INPUT: Supply measured inhibition of CC(C)C[C@H]1C(=O)N2CCC[C@H]2[C@]2(O)O[C@](NC(=O)[C@@H]3C=C4c5cccc6[nH]c(Br)c(c56)CC4N(C)C3)(C(C)C)C(=O)N12 (stereo partly specified) in your reply.
OUTPUT: 4% (inactive)

* * *

Let's look at some molecules and their measured viability.
protocolText: MRP1 drug-resistance reversers in H69AR cells – cell-based, doxorubicin co-treatment, pilot screen (AID 601)
setupConditions: H69AR cells, CellTiter-Glo, 72 h; compound alone cytotoxicity; at 10 µM
The response must be a number in % with no trailing unit.

# example entries with known answers
INPUT: Please give measured viability of the following entry: CC(C)[C@@]1(NC(=O)[C@@H]2C=C3c4cccc5[nH]cc(c45)C[C@H]3N(C)C2)O[C@@]2(O)[C@@H]3CCCN3C(=O)[C@H](Cc3ccccc3)N2C1=O
OUTPUT: 90.5

INPUT: Please report the measured viability for O=C(c1ccncc1)C12CN3CN(CN(C3)C1)C2
OUTPUT: 89.5

INPUT: Read off the recorded viability for Cc1ccccc1-n1c(O)c(C=NCCN2CCOCC2)c(=O)[nH]c1=O
OUTPUT: 92.4

Here's the next entry for you.
INPUT: Give recorded viability. CN(C)CCc1nc2ccccc2c(=O)n1-c1ccccc1
OUTPUT: 90.6

* * *

protocolText: MRP1 drug-resistance reversers in H69AR cells – cell-based, doxorubicin co-treatment, pilot screen (AID 601)
setupConditions: H69AR cells, CellTiter-Glo, 72 h; compound alone cytotoxicity; at 10 µM
testReadout: viability (%)
State the answer as a number, implicitly in %.

Here is how some molecules turned out for viability.
INPUT: Answer with the recorded viability for the molecule listed here: c1ccc(Cn2ccnc2)cc1
OUTPUT: 93.5

INPUT: Identify measured viability associated with [N-]=[N+]=CC(=O)OC[C@H](N)C(=O)O
OUTPUT: 88.5

INPUT: Report viability, nothing else, for this molecule: Cc1ccc(C(=O)C2CN3CCC2CC3)cc1 (centres undefined)
OUTPUT: 97.6

Moving on to the next molecule.
INPUT: Item N#Cc1ccccc1Cn1cc(C(=O)C2CC2)c2ccccc21 : provide viability
OUTPUT: 59.4

* * *

protocolText: MRP1 drug-resistance reversers in H69AR cells – cell-based, doxorubicin co-treatment, pilot screen (AID 601)
setupConditions: H69AR cells + 2 uM doxorubicin, CellTiter-Glo, 72 h; at 10 µM; stronger effect = higher value
Activity calls are given as the source filed them.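 Rule for the calls: active = viability loss from added drug above about 55%, and viability with drug at most 40%, in both replicates (limit read from the data, passing the limit was not always enough); inconclusive = both conditions met in only one replicate; inactive = neither replicate meets both conditions.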
testReadout: differential viability (reversal)

# annotated cases, reported differential viability (reversal) shown
INPUT: Consider the molecule CC(C)[C@@]1(NC(=O)[C@@H]2C[C@@H]3c4cccc5[nH]cc(c45)C[C@H]3N(C)C2)O[C@@]2(O)[C@@H]3CCCN3C(=O)[C@H](Cc3ccccc3)N2C1=O and give its recorded differential viability (reversal).
OUTPUT: -3.47% (inactive)

INPUT: Report measured differential viability (reversal); entry is C=CCn1c(O)c(C(C)=NCc2cccnc2)c(=O)[nH]c1=O
OUTPUT: 4.8% (inactive)

INPUT: Complete the entry with differential viability (reversal) for O=C(NC1(C(F)(F)F)Oc2ccc(Cl)cc2O1)N1CCC2(CC1)OCCO2 (stereo not drawn)
OUTPUT: -23.8% (inactive)

INPUT: Quickly give me recorded differential viability (reversal) for O=c1c2ccccc2nc(CSc2ncnc3nc[nH]c23)n1-c1ccccc1
OUTPUT: -8.74% (inactive)

INPUT: Look up and report measured differential viability (reversal) for this entry: Clc1ccc(COC(Cn2ccnc2)c2ccc(Cl)cc2Cl)cc1 (stereo not drawn)
OUTPUT: -9.47% (inactive)

INPUT: In one line, give reported differential viability (reversal) of the entry CC(C)[C@H]1C(=O)N2CCC[C@H]2[C@]2(O)O[C@](NC(=O)[C@@H]3C=C4c5cccc6[nH]cc(c56)C[C@H]4N(C)C3)(C(C)C)C(=O)N12 .
OUTPUT: 0.81% (inactive)

INPUT: Identify measured differential viability (reversal) associated with Cc1ccc(CC2C(=O)N(C)C(=O)N(C)C2=O)s1
OUTPUT: 7.06% (inactive)

INPUT: Provide differential viability (reversal) value for the following molecule: C=CCN1C(=O)C2(C(C(=O)OCC)=C(N)Oc3c2c(=O)oc2ccccc32)c2ccccc21 (stereo not drawn)
OUTPUT: -10.5% (inactive)

Next:
INPUT: # return recorded differential viability (reversal) for input O=C(CN1C2CCC1CC(O)(c1cccnc1)C2)Nc1ccc2c(c1)OCO2 (stereo not drawn)
OUTPUT: 2.46% (inactive)

INPUT: Kindly indicate its recorded differential viability (reversal). Item: CCOC(=O)c1cc2c(cn1)[nH]c1ccccc12
OUTPUT: 3.16% (inactive)

INPUT: Indicate its recorded differential viability (reversal); the molecule in question is CC[N+]1(C)CCCC(OC(=O)C(O)(c2ccccc2)c2ccccc2)C1 (stereo not drawn)
OUTPUT: 11.1% (inactive)

INPUT: Report differential viability (reversal), nothing else, for this molecule: CCC(C)NC(=O)c1c(N)n(CC2CCCO2)c2nc3ccccc3nc12 (stereo not drawn)
OUTPUT: -8.02% (inactive)

INPUT: Using known records, supply differential viability (reversal) for Cc1ccccc1-n1c(O)c(C=NCCN2CCOCC2)c(=O)[nH]c1=O
OUTPUT: -3.12% (inactive)

* * *

targetSystem: Pantothenate synthetase (Mycobacterium tuberculosis (strain ATCC 25618 / H37Rv))
protocolText: Coupled enzyme confirmation of inhibitors against recombinant Mtb PanC (AID 375);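 note: 0% = full reaction with vehicle and 100% = no enzyme background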
setupConditions: coupled enzyme assay; at 10 µM, stronger effect = higher value
Activity calls are given as the source filed them. How the calls were made is not given here.
Known inhibition of a selection of molecules

INPUT: Give the reported inhibition for this molecule. COC(=O)CCn1nnc(-c2cccs2)n1
OUTPUT: 1% (inactive)

INPUT: Tell me its inhibition given O=C(Nc1ccc(N2CCCCC2)cc1)c1ccc(F)cc1 as the entry.
OUTPUT: 0% (inactive)

INPUT: Consider the molecule O=C(NCc1ccco1)c1cnn2c(C(F)(F)F)cc(-c3ccco3)nc12 and give its recorded inhibition.
OUTPUT: 4% (inactive)

INPUT: Kindly indicate its recorded inhibition. Item: C=CCn1c(SCC(=O)c2ccccc2)nnc1-c1ccc2c(c1)OCO2
OUTPUT: 0% (inactive)

INPUT: Determine its reported inhibition: O=C(COC(=O)C1CC1)c1c[nH]c2ccccc12
OUTPUT: 1% (inactive)

Let us move to another entry and its inhibition.
INPUT: Item O=C(CCN1C(=O)c2ccccc2C1=O)NCCN1CCOCC1 : provide inhibition
OUTPUT: 0% (inactive)

Cited source: PubChem BioAssay
